B1: glmS ribozyme (parent)
chain: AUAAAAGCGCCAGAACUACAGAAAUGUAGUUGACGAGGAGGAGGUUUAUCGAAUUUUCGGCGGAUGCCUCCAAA

# Variants of: B1
# TEST_DETAILS: self-cleavage kobs at 2500 uM GlcN6P; higher = faster cleavage; RNA array
# RUN_CONDITIONS: with glucosamine-6-phosphate
This sample holds only a part of the variants without activity.
OUTCOME_MEASURE: self-cleavage kobs at 2500 uM GlcN6P

Examples from the recorded data:
{"columns": ["SEQ_STRING", "self-cleavage kobs at 2500 uM GlcN6P"],
 "data": [
  ["AUAAAAGCGCCAGAACUACAGAAAUGUAGUUGACGAGGAGGAGGUUUAUCGUAAUUUCGGCGGAUGUCUCCAAA", "0.000187 s⁻¹"],
  ["AUAAAAGCGCCACAACUACAGAAAUGUAGUUGAUGAGGAGGAGGUUUAUCGAAUUUUCGGCGGAUGCCUCCAAA", "< 1e-05 s⁻¹"]
]}

Request: Report self-cleavage kobs at 2500 uM GlcN6P for `AUAAAAGCGCCAGAACUACAGAAAUGUAGUUGACGAGGAGGAGGUUUAUCGAAUAAUCGGCGGGUGCCUCCAAA`
Response: 0.0035 s⁻¹

Request: Report self-cleavage kobs at 2500 uM GlcN6P for `AUAAAAGCGCCAGAACUACAGAAAUGUAGACAACGAGGAGGAGGUUUAUCGAAUUUUCGGCGGAUGCCUCCAAA`
Response: 0.000298 s⁻¹

Request: Report self-cleavage kobs at 2500 uM GlcN6P for `AUAAAAGCGCCAGAACUACAGAAAUGUAGUUGACGAGGAGGAGGUUUAUCGUAUUUUCGGCGGAUGACUCCAAA`
Response: 0.000124 s⁻¹

Request: Report self-cleavage kobs at 2500 uM GlcN6P for `AUAAAAGCGCCAGAAUUACAGAAAUGUAGUUGACGAGGAGAAGGUUUAUCGAAUUUUCUGCGGAUGCCUCCAAA`
Response: < 1e-05 s⁻¹

Request: Report self-cleavage kobs at 2500 uM GlcN6P for `AUAAAAGCGCCAGAACUACAGAAAUGUAGUGGACGCGGAGGAGGUUUAGCGAAUUUUCGGCGGAUGCCUCCAAA`
Response: 0.000257 s⁻¹

All values here come from the supplement of paper PMC7125110.
